Just for reference, ChEMBL document CHEMBL3399942 is where these values come from.

# experimental-protocol: Cmax in cynomolgus monkey at 5 mg/kg, po after 72 hrs by LC/MS/MS analysis
# Assay type: ADME, organism-based, Macaca fascicularis
# Design: dose 5 mg/kg, route oral
# run-conditions: in vivo
endpoint-name: Cmax

QUERY: Look up Cmax of CN1CCC(COc2cnc(-c3cccc(Cn4nc(-c5cccc(C#N)c5)ccc4=O)c3)nc2)CC1 [TEPOTINIB] and report it.
RESULT: 55.5 ng/mL

###

# experimental-protocol: Volume of distribution at steady state in NMRI mouse at 2 mg/kg, iv after 24 hrs by LC/MS/MS analysis
# Format: ADME, organism-based
# Parameters: dose 2 mg/kg, route intravenous
# run-conditions: in vivo, read-out: Vdss
endpoint-name: Vd (L/kg)
Use L/kg as the unit, but write only the number.

QUERY: Look up Vd of CN1CCC(COc2cnc(-c3cccc(Cn4nc(-c5cccc(C#N)c5)ccc4=O)c3)nc2)CC1 [TEPOTINIB] and report it.
RESULT: 8.2

###

# experimental-protocol: Plasma protein binding in human at 0.3 uM
# Type: ADME, cell-free
# run-conditions: read-out: PPB (converted)
endpoint-name: fraction unbound at 0.3 µM
Just the number, please, no unit attached.

QUERY: Look up fraction unbound at 0.3 µM of `CN1CCC(COc2cnc(-c3cccc(Cn4nc(-c5cccc(C#N)c5)ccc4=O)c3)nc2)CC1` and report it.
RESULT: 0.016

###

# experimental-protocol: Volume of distribution at steady state in cynomolgus monkey at 2 mg/kg, iv after 72 hrs by LC/MS/MS analysis
# Assay type: ADME, organism-based, Macaca fascicularis
# Design: dose 2 mg/kg, route intravenous
# run-conditions: in vivo, read-out: Vdss
endpoint-name: Vd (L/kg)
Use L/kg as the unit, but write only the number.

QUERY: Look up Vd of CN1CCC(COc2cnc(-c3cccc(Cn4nc(-c5cccc(C#N)c5)ccc4=O)c3)nc2)CC1 [TEPOTINIB] and report it.
RESULT: 9.6

###

Reported clearance values for a set of compounds
# experimental-protocol: Clearance in NMRI mouse at 0.2 mg/kg, iv and 0.5 mg/kg, po by LC/MS/MS analysis
# Assay type: ADME, organism-based
# run-conditions: in vivo
Use mL/min/kg as the unit, but write only the number.

Example entries and their recorded answers appear below.
- CN(C)CCCOc1cnc(-c2cccc(Cn3nc(-c4cccc(C#N)c4)ccc3=O)c2)nc1: 102
- CN(C)CCCOC(=O)Nc1cccc(CN2N=C(c3cc(F)cc(F)c3)CSC2=O)c1: 56.7
- CN(C)CCCOC(=O)Nc1cccc(Cn2nc(-c3cc(F)cc(F)c3)ccc2=O)c1: 51.7
- CCN(CC)CCCOC(=O)Nc1cccc(CN2N=C(c3ccc(OC)c(OC)c3)CSC2=O)c1: 100
- CN1CCC(COc2cnc(-c3cccc(Cn4nc(-c5cccc(C#N)c5)ccc4=O)c3)nc2)CC1 [TEPOTINIB]: 60

// moving on: another record for clearance
QUERY: Look up clearance of `N#Cc1cccc(-c2ccc(=O)n(Cc3cccc(-c4ncc(OCCN5CCOCC5)cn4)c3)n2)c1` and report it.
RESULT: 35

###

# experimental-protocol: Fraction unbound in cynomolgus monkey plasma
# Assay type: ADME, cell-free, Macaca fascicularis
endpoint-name: fraction unbound
Just the number, please, no unit attached.

QUERY: Look up fraction unbound of CN1CCC(COc2cnc(-c3cccc(Cn4nc(-c5cccc(C#N)c5)ccc4=O)c3)nc2)CC1 [TEPOTINIB] and report it.
RESULT: 0.052

###

# experimental-protocol: Oral bioavailability in NMRI mouse at 0.5 mg/kg by LC/MS/MS analysis
# Type: ADME, organism-based
# run-conditions: in vivo
Reported bioavailability values for a set of compounds
Use % as the unit, but write only the number.

- N#Cc1cccc(-c2ccc(=O)n(Cc3cccc(-c4ncc(OCCN5CCOCC5)cn4)c3)n2)c1: 35
- CN(C)CCCOC(=O)Nc1cccc(Cn2nc(-c3cc(F)cc(F)c3)ccc2=O)c1: 30

QUERY: Look up bioavailability of `CN(C)CCCOC(=O)Nc1cccc(CN2N=C(c3cc(F)cc(F)c3)CSC2=O)c1` and report it.
RESULT: 25

QUERY: Look up bioavailability of `CN(C)CCCOc1cnc(-c2cccc(Cn3nc(-c4cccc(C#N)c4)ccc3=O)c2)nc1` and report it.
RESULT: 32

QUERY: Look up bioavailability of CN1CCC(COc2cnc(-c3cccc(Cn4nc(-c5cccc(C#N)c5)ccc4=O)c3)nc2)CC1 [TEPOTINIB] and report it.
RESULT: 34

###

# experimental-protocol: Volume of distribution at steady state in beagle dog at 2 mg/kg, iv after 48 hrs by LC/MS/MS analysis
# Format: ADME, organism-based, Canis lupus familiaris
# Set-up: dose 2 mg/kg, route intravenous
# run-conditions: in vivo, read-out: Vdss
endpoint-name: Vd
Form entry: enter the amount, then its unit.

QUERY: Look up Vd of `CN1CCC(COc2cnc(-c3cccc(Cn4nc(-c5cccc(C#N)c5)ccc4=O)c3)nc2)CC1` and report it.
RESULT: 26 L/kg

###

# experimental-protocol: Oral bioavailability in cynomolgus monkey at 5 mg/kg after 72 hrs by LC/MS/MS analysis
# Assay type: ADME, organism-based, Macaca fascicularis
# run-conditions: in vivo
endpoint-name: bioavailability (%)
Use % as the unit, but write only the number.

QUERY: Look up bioavailability of CN1CCC(COc2cnc(-c3cccc(Cn4nc(-c5cccc(C#N)c5)ccc4=O)c3)nc2)CC1 [TEPOTINIB] and report it.
RESULT: 25

###

# experimental-protocol: Oral bioavailability in NMRI mouse at 5 mg/kg after 24 hrs by LC/MS/MS analysis
# Format: ADME, organism-based
# run-conditions: in vivo
endpoint-name: bioavailability
Form entry: enter the amount, then its unit.

QUERY: Look up bioavailability of CN1CCC(COc2cnc(-c3cccc(Cn4nc(-c5cccc(C#N)c5)ccc4=O)c3)nc2)CC1 [TEPOTINIB] and report it.
RESULT: 41%

###

# experimental-protocol: Half life in Wistar rat at 3 mg/kg, iv after 24 hrs by LC/MS/MS analysis
# Format: ADME, organism-based
# Parameters: dose 3 mg/kg, route intravenous
# run-conditions: in vivo
endpoint-name: half-life (h)
Use h as the unit, but write only the number.

QUERY: Look up half-life of `CN1CCC(COc2cnc(-c3cccc(Cn4nc(-c5cccc(C#N)c5)ccc4=O)c3)nc2)CC1` and report it.
RESULT: 3.2

###

# experimental-protocol: Cmax in Wistar rat at 6 mg/kg, po after 24 hrs by LC/MS/MS analysis
# Type: ADME, organism-based
# Parameters: dose 6 mg/kg, route oral
# run-conditions: in vivo
endpoint-name: Cmax (ng/mL)
Use ng/mL as the unit, but write only the number.

QUERY: Look up Cmax of `CN1CCC(COc2cnc(-c3cccc(Cn4nc(-c5cccc(C#N)c5)ccc4=O)c3)nc2)CC1` and report it.
RESULT: 66

###

# experimental-protocol: Half life in NMRI mouse at 2 mg/kg, iv after 24 hrs by LC/MS/MS analysis
# Type: ADME, organism-based
# Set-up: dose 2 mg/kg, route intravenous
# run-conditions: in vivo
endpoint-name: half-life (h)
Use h as the unit, but write only the number.

QUERY: Look up half-life of `CN1CCC(COc2cnc(-c3cccc(Cn4nc(-c5cccc(C#N)c5)ccc4=O)c3)nc2)CC1` and report it.
RESULT: 2.1

###

# experimental-protocol: Clearance in beagle dog at 2 mg/kg, iv after 48 hrs by LC/MS/MS analysis
# Type: ADME, organism-based, Canis lupus familiaris
# Set-up: dose 2 mg/kg, route intravenous
# run-conditions: in vivo
endpoint-name: clearance (mL/min/kg)
Use mL/min/kg as the unit, but write only the number.

QUERY: Look up clearance of CN1CCC(COc2cnc(-c3cccc(Cn4nc(-c5cccc(C#N)c5)ccc4=O)c3)nc2)CC1 [TEPOTINIB] and report it.
RESULT: 55
